# study target: T1, recombinant heavy chain Protein S (human, UniProt P07225 42-296)
# T1 construct: Fragment of Protein S spanning amino acids 42-296, expressed and purified from HEK293 cells; also called Protein S heavy chain; heavy chain of Protein S
# T1 sequence: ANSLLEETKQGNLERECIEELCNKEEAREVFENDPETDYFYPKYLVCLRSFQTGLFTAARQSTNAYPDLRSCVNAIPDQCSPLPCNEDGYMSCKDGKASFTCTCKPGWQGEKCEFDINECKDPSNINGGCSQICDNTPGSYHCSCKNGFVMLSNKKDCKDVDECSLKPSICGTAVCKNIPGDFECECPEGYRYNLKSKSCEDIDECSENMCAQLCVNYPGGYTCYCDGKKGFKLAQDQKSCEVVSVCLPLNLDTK
# test: ELISA; plate coated with recombinant Protein S heavy chain; 1 mM CaCl2
reported metric: Binding to heavy chain (OD)
Answer in OD, number only, no unit symbol.

Indicate the recorded Binding to heavy chain (OD) value for this binder: Antibody 15 (antibody, V domains shown, Human variable region with rat Fc) VH: EVQLVESGGGLVQPGRSLRLSCAASGFTFDDYAMHWVRQAPGKGLEWVSGITWNSGNIGYADSVKGRFTISRDNAKNSLYLHMNSLRIEDTAFYYCAKGRAVSDTFDIWGQGTMVTVSS VL: SYELNQPPSVSVSPGQTASITCSGDKLGDKYASWYQQKPGQSPVVAIYQNSKRPSGIPERFSASNSGNTATLTISGTQALDEADYYCQAWDSSTWVFGGGTKLTVL
1.78
